The entries below are paired with their reported pKi.
Target protein (sequence): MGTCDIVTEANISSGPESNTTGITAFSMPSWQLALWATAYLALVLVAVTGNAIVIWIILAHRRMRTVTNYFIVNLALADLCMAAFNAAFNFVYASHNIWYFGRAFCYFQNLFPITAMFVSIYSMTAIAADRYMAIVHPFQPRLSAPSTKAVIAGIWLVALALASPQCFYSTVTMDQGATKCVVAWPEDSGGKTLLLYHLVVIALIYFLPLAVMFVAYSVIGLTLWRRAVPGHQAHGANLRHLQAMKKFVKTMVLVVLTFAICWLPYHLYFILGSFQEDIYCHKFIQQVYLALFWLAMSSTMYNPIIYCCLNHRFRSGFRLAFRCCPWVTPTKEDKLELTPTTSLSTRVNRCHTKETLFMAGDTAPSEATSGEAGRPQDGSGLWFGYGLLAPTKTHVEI
pKi is defined as minus the log10 of a concentration measured in mol/L.

| chem-smiles | pKi |
| --- | --- |
| O=C(NC1(C(=O)N[C@@H](Cc2ccccc2)C(=O)NCC2CCN(CC3CCOCC3)CC2)CCCC1)c1ccc(-n2cccc2)cc1Cl | 8.40 |
| O=C(NC1(C(=O)N[C@@H](Cc2ccccc2)C(=O)NCC2CCN(CC3CCOCC3)CC2)CCCC1)c1ccc(-n2cccc2)cc1 | 9.63 |

IN: Identify the reported pKi for the following entry. COc1c(C(=O)NC2(C(=O)N[C@H](CCCN3CCN(CC4CCOCC4)CC3)Cc3ccccc3)CCCC2)ccc2ccccc12
OUT: 7.35

* * *

The entries below are paired with their reported solubility.
test-protocol: Aqueous solubility of the compound at pH 6.4
Format: physicochemical

| chem-smiles | solubility |
| --- | --- |
| COc1c(C(=O)NC2(C(=O)N[C@H](CCCN3CCN(CC4CCOCC4)CC3)Cc3ccccc3)CCCC2)ccc2ccccc12 | 1910 µg/mL |
| O=C(NC1(C(=O)N[C@@H](Cc2ccccc2)C(=O)NCC2CCN(CC3CCOCC3)CC2)CCCC1)c1ccc(-n2cccc2)cc1F | > 2860 µg/mL |
| CCCCc1ccc(C(=O)NC2(C(=O)N[C@@H](Cc3ccccc3)C(=O)NCC3CCN(CC4CCOCC4)CC3)CCCC2)nc1 | > 6600 µg/mL |
| O=C(NC1(C(=O)N[C@@H](Cc2ccccc2)C(=O)NCC2CCN(CC3CCOCC3)CC2)CCCC1)c1ccc(-n2cccc2)cc1Cl | > 2820 µg/mL |
| O=C(NC1(C(=O)N[C@@H](Cc2ccccc2)C(=O)NCC2CCN(CC3CCOCC3)CC2)CCCC1)c1ccc(-n2cccc2)cc1 | 1450 µg/mL |
| O=C(NC1(C(=O)N[C@H](CCCN2CCN(CC3CCOCC3)CC2)Cc2ccccc2)CCCC1)c1ccc2ccccc2c1 | 1570 µg/mL |
| CCCCc1ccc(C(=O)NC2(C(=O)N[C@@H](Cc3ccccc3)C(=O)NCC3CCN(CC4CCOCC4)CC3)CCCC2)cc1 | > 2410 µg/mL |
| COc1cc2ccccc2cc1C(=O)NC1(C(=O)N[C@H](CCCN2CCN(CC3CCOCC3)CC2)Cc2ccccc2)CCCC1 | 3070 µg/mL |

Now consider a different molecule.
IN: Identify the reported solubility for the following entry. O=C(NC1(C(=O)N[C@H](CCCN2CCN(CC3CCOCC3)CC2)Cc2ccccc2)CCCC1)c1cc2ccccc2cn1
OUT: 2800 µg/mL

* * *

test-protocol: Membrane permeability by PAMPA assay
Assay type: ADME
condition-label: read-out: permeability
Returns one of Yes or No; Yes when Papp is >= 6 ×10⁻⁶ cm/s.

Past entries and their recorded results:
| chem-smiles | class |
| --- | --- |
| O=C(NC1(C(=O)N[C@@H](Cc2ccccc2)C(=O)NCC2CCN(CC3CCOCC3)CC2)CCCC1)c1ccc(-n2cccc2)cc1F | No |
| COc1cc2ccccc2cc1C(=O)NC1(C(=O)N[C@H](CCCN2CCN(CC3CCOCC3)CC2)Cc2ccccc2)CCCC1 | Yes |
| COc1c(C(=O)NC2(C(=O)N[C@H](CCCN3CCN(CC4CCOCC4)CC3)Cc3ccccc3)CCCC2)ccc2ccccc12 | Yes |
| O=C(NC1(C(=O)N[C@H](CCCN2CCN(CC3CCOCC3)CC2)Cc2ccccc2)CCCC1)c1cc2ccccc2cn1 | Yes |

IN: Please tell me: is the compound O=C(NC1(C(=O)N[C@@H](Cc2ccccc2)C(=O)NCC2CCN(CC3CCOCC3)CC2)CCCC1)c1ccc(-n2cccc2)cc1Cl at or over 6 ×10⁻⁶ cm/s in terms of Papp?
OUT: No

* * *

test-protocol: Permeability across apical to basolateral side in human Caco2 cells at 100 uM
Type: ADME, cell-based
condition-label: Caco-2, read-out: permeability
The entries below are paired with their reported Papp A→B at 100 µM.
Unit ×10⁻⁶ cm/s implied. Number only.

IN: Identify the reported Papp A→B at 100 µM for the following entry. O=C(NC1(C(=O)N[C@@H](Cc2ccccc2)C(=O)NCC2CCN(CC3CCOCC3)CC2)CCCC1)c1ccc(-n2cccc2)cc1F
OUT: 13.8

IN: Identify the reported Papp A→B at 100 µM for the following entry. O=C(NC1(C(=O)N[C@@H](Cc2ccccc2)C(=O)NCC2CCN(CC3CCOCC3)CC2)CCCC1)c1ccc(-n2cccc2)cc1Cl
OUT: 4.21

IN: Identify the reported Papp A→B at 100 µM for the following entry. COc1c(C(=O)NC2(C(=O)N[C@H](CCCN3CCN(CC4CCOCC4)CC3)Cc3ccccc3)CCCC2)ccc2ccccc12
OUT: 11.7

IN: Identify the reported Papp A→B at 100 µM for the following entry. COc1cc2ccccc2cc1C(=O)NC1(C(=O)N[C@H](CCCN2CCN(CC3CCOCC3)CC2)Cc2ccccc2)CCCC1
OUT: 13.6

IN: Identify the reported Papp A→B at 100 µM for the following entry. O=C(NC1(C(=O)N[C@H](CCCN2CCN(CC3CCOCC3)CC2)Cc2ccccc2)CCCC1)c1cc2ccccc2cn1
OUT: 25.2

IN: Identify the reported Papp A→B at 100 µM for the following entry. O=C(NC1(C(=O)N[C@H](CCCN2CCN(CC3CCOCC3)CC2)Cc2ccccc2)CCCC1)c1ccc2ccccc2c1
OUT: 14.7
